target: human C5 (human); assay: SPR, pH 5.8, 37C
measurement.name: Kd (nM)
Numeric only. Scale: nM

Record 305LO20-SG115 (antibody, V domains shown) VH: QVQLVESGGGLVQPGGSLRLSCAASGFTVHSSYYMAWVRQAPGKGLEWVGAIFTGSGAEYKAEWAKGRVTISKDTSKNQVVLTMTNMDPVDTATYYCASDAGYDYPTHAMHYWGQGTLVTVSS VL: DIQMTQSPSSLSASVGDRVTITCRASQGISSSLAWYQQKPGQAPRLLIYGASETESGVPSRFSGSGSGTDFTLTISSLQPEDFATYYCQNTKVGSSYGNTFGGGTKVEIK , field Kd: 58.1
